# target: MAT2A (Homo sapiens (Human), UniProt P31153)
# Sequence (P31153 whole entry): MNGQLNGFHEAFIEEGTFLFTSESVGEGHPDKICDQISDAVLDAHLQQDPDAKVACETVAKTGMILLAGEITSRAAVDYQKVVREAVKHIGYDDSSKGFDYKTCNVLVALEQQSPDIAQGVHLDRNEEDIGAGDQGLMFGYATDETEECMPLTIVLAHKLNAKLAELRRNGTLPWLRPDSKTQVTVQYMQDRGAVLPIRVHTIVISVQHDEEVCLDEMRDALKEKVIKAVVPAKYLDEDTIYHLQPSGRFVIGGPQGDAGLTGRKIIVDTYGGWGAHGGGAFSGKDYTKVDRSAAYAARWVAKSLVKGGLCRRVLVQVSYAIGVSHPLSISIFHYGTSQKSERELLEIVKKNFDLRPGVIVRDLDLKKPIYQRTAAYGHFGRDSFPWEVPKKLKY
pIC50: −log10 of the molar value.
valueKind: pIC50

INSERT INTO measurements (compound, valuekind, resultvalue) VALUES
  ('CCOc1c(-c2ccc(OC(F)F)cc2)c(=O)n(-c2ccc3ncn(C)c3c2)c2[nH]ncc12 [Compound 22]', 'pIC50', 7.80),
  ('Cc1ccc(-c2c(OCC(F)(F)F)c3cn[nH]c3n(-c3ccc4nn(C)cc4c3)c2=O)cn1 [Compound 52]', 'pIC50', 7.75),
  ('Cn1cc2nc(-n3c(=O)c(-c4ccc(Cl)cc4)c(NCC4CC4)c4cn[nH]c43)ccc2n1 [Compound 107]', 'pIC50', 7.78),
  ('CCOc1c(-c2ccc(OC(F)F)cc2)c(=O)n(-c2ccc3nn(CCO)cc3c2)c2[nH]ncc12 [Compound 20]', 'pIC50', 8.01),
  ('COc1ccc(-c2c(NCC3CC3)c3cn[nH]c3n(-c3ccc4nn(C)cc4n3)c2=O)cc1 [Compound 5]', 'pIC50', 7.75),
  ('Cn1cnc2ccc(-n3c(=O)c(-c4ccc(OC(F)F)cc4)c(OCC4CC4)c4cn[nH]c43)cc21 [Compound 32]', 'pIC50', 7.84),
  ('Cn1cc2cc(-n3c(=O)c(-c4ccc(Cl)cc4)c(OCC(F)(F)F)c4cn[nH]c43)ccc2n1 [Compound 28]', 'pIC50', 7.82);

Data provenance: patent US20260014125A1
